B1: VH:VL chains; a variant is named by its letters at X, in order (parent)
chain 1: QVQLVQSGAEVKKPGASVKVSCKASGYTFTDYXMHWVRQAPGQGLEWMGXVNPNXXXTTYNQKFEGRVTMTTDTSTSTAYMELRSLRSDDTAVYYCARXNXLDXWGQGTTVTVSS
chain 2: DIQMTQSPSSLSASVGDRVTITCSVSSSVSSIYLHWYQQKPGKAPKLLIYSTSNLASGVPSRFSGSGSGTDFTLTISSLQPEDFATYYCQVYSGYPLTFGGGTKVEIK

# Variants of: B1
# procedure details: yeast display scFab, FACS + sequencing
# condition summary: with MET
The other results are listed elsewhere or left out. No count for the full screen is at hand.
readout name: antigen binding call

Example results:
Query block: Find the recorded antigen binding call belonging to FAAGGAAS and report it.
Result block: binds

Query block: Quick one: antigen binding call for VRERGDGS ?
Result block: no binding

Query block: Quick check: antigen binding call of YRGKGYVV ?
Result block: binds

Query block: Could you tell me which antigen binding call is on file for YTAGSDGV ?
Result block: no binding

Query block: Would you mind telling me what antigen binding call value was observed for YRRGSFGA ?
Result block: binds

Query block: So what does the record say about antigen binding call for STRKSYAA ?
Result block: no binding

---
Query block: Reported antigen binding call for YRTRSSWD : what is it?
Result block: binds

Query block: Given YRAGSSGV , state its recorded antigen binding call.
Result block: binds

Query block: Using the record for YAGKGFGA , report its antigen binding call.
Result block: no binding
